# assay_protocol: Mouse PK test of peptides (intravenous and oral administration)
# conditions: male, C57BL/6J, in vivo, po, 20 mg/kg
Positions of bridges follow the written chain, without caps; N, C: chain ends. Non-standard residues stand in square brackets, D forms with d. Residues, ends and D or L forms follow the SMILES beside them. *: point of attachment. NMeF = CN[C@@H](Cc1ccccc1)C(=O)O; NMeI = CC[C@H](C)[C@H](NC)C(=O)O; NMeL = CN[C@@H](CC(C)C)C(=O)O; NMeA = CN[C@@H](C)C(=O)O; Piperidide = C1CCN(*)CC1; NPrGly = CCCNCC(=O)O; Sar = CNCC(=O)O; tBu = CC(C)(C)*
Consider the following molecules; for each one, report its CL/F.
Report as a plain number; the unit mL/min/kg is understood.

Lab book: CL/F of CC[C@H](C)[C@H]1C(=O)N[C@H](C(=O)N2CCCCC2)CC(=O)N[C@H](C(C)C)C(=O)N(C)[C@@H](Cc2ccccc2)C(=O)N(C)[C@@H](CC(C)C)C(=O)N[C@@H]([C@@H](C)O)C(=O)N(C)CC(=O)N(C)[C@@H](CC(C)C)C(=O)N[C@@H](COC(C)(C)C)C(=O)N1C [DP-265] ([dV][NMeF][NMeL]T[Sar][NMeL]S(tBu)[NMeI]D-Piperidide; lactam N-9) noted as 65.1

Lab book: CL/F of CCCN1CC(=O)N(C)[C@@H](CC(C)C)C(=O)N[C@@H]([C@@H](C)O)C(=O)N(C)[C@@H](C)C(=O)N(C)[C@@H](CC(C)C)C(=O)N(C)[C@@H]([C@@H](C)CC)C(=O)N[C@@H](COC(C)(C)C)C(=O)N[C@H](C(=O)N2CCCCC2)CC(=O)N(C)[C@@H](C)C(=O)N(C)[C@@H](Cc2ccccc2)C1=O [DP-540] ([NMeA][NMeF][NPrGly][NMeL]T[NMeA][NMeL][NMeI]S(tBu)D-Piperidide; lactam N-10) noted as 35.8

Lab book: CL/F of CCCN1CC(=O)N(C)[C@@H](CC(C)C)C(=O)N[C@@H](COC(C)(C)C)C(=O)N(C)[C@@H](CC(C)C)C(=O)N[C@H](C(=O)N2CCCCC2)CC(=O)N[C@H](C)C(=O)N(C)[C@@H](C)C(=O)N(C)[C@@H](Cc2ccccc2)C(=O)N(C)[C@@H](CC(C)C)C(=O)N[C@@H]([C@@H](C)O)C1=O [DP-547] ([dA][NMeA][NMeF][NMeL]T[NPrGly][NMeL]S(tBu)[NMeL]D-Piperidide; lactam N-10) noted as 74.6

Lab book: CL/F of CC(C)C[C@@H]1NC(=O)[C@H](Cc2ccccc2)N(C)C(=O)[C@H](Cc2ccccc2)N(C)C(=O)[C@H](CC(C)C)NC(=O)[C@H](C)N(C)C(=O)[C@H]([C@@H](C)O)NC(=O)[C@H](C)N(C)C(=O)C[C@@H](C(=O)N2CCCCC2)NC(=O)[C@H](CC(C)C)N(C)C1=O [DP-125] ([NMeA]T[NMeA]L[NMeF][NMeF]L[NMeL]D-Piperidide; lactam N-9) noted as 27.5

Lab book: CL/F of CC[C@H](C)[C@H](NC(=O)[C@@H]1CCCN1C(=O)[C@@H]1CC(=O)N[C@@H](C)C(=O)N[C@@H](CC(C)C)C(=O)N(C)[C@@H]([C@@H](C)CC)C(=O)N[C@@H](C(C)C)C(=O)N(C)[C@@H](Cc2ccccc2)C(=O)N[C@@H](CC(C)C)C(=O)N(C)[C@@H](Cc2ccccc2)C(=O)N1)C(=O)N1CCCCC1 [DP-965] (AL[NMeI]V[NMeF]L[NMeF]DPI-Piperidide; lactam N-8) noted as 28.9
